experiment: Cytotoxicity against L6-cells (resazurin); type: cell-based, rat; details: rat
We begin with a simple list: items and their reported CC50 at 72 h.

- Molecule: "O=C(O)CC1CNC(=O)c2cc(Br)c(Br)n21 (stereo not shown) [Compound 8, longamide B]"
  Measurement type: "CC50 at 72 h"
  Result: "9.94 µg/mL"

Look up CC50 at 72 h for this molecule: NC1=NC(=O)/C(=C/C(O)CNC(=O)c2cc(Br)c[nH]2)N1 (stereo not shown) [Compound 4, dispacamide D]
> 90 µg/mL

Which CC50 at 72 h reading was recorded for the molecule `Nc1nc([C@H]2[C@H](CNC(=O)c3cc(Br)c[nH]3)[C@@H](CNC(=O)c3cc(Br)c[nH]3)[C@@H]2c2c[nH]c(N)n2)c[nH]1` ?
> 90 µg/mL

Could you share which CC50 at 72 h value was measured for `Nc1ncc(C2=CCNC(=O)c3[nH]c(Br)c(Br)c32)[nH]1` ?
> 90 µg/mL

---

experiment: Cytotoxicity against L6-cells (resazurin); assay type: cell-based, rat; conditions: rat
A collection of compounds and their measured CC50 at 72 h

Here is how some compounds turned out for CC50 at 72 h.
- Compound: "O=C1CCNC(=O)c2[nH]c(Br)cc21 [Compound 7, bromoaldisin]"
  CC50 at 72 h: "> 90 µg/mL"
- Compound: "O=C1NC[C@@H](O)n2c1cc(Br)c2Br [Compound 9, longamide A]"
  CC50 at 72 h: "> 90 µg/mL"
- Compound: "Nc1ncc(/C=C/CNC(=O)c2cc(Br)c[nH]2)[nH]1 [Compound 2, hymenidin]"
  CC50 at 72 h: "75.7 µg/mL"
- Compound: "NC1=NC(=O)/C(=C/CCNC(=O)c2cc(Br)c[nH]2)N1 [Compound 3, dispacamide B]"
  CC50 at 72 h: "> 90 µg/mL"
- Compound: "C[C@]1(COC(=O)c2cc(Br)c[nH]2)C[C@@H](C(=O)O)N=CN1 [Compound 13, manzacidin A]"
  CC50 at 72 h: "> 90 µg/mL"

// next item, CC50 at 72 h requested
CC50 at 72 h for N=C(N)NCCCC[C@H](NC(=O)c1cc(Br)c[nH]1)C(=O)O [Compound 12, bromopyrrolohomoarginin] ?
62.3 µg/mL

---

experiment: Cytotoxicity against L6-cells (resazurin); assay type: cell-based, rat; conditions: rat; 72 h; read-out: CC50 Cytotoxicity L6 cells
Listing: CC50 at 72 h of selected compounds
I'd appreciate it if you wrote the number followed by its unit.

- Compound: "COc1cc([C@@H]2c3cc4c(cc3[C@H](O)[C@H]3COC(=O)[C@H]23)OCO4)cc(OC)c1OC [Podophyllotoxin, reference compound]"
  CC50 at 72 h: "0.005 µg/mL"

Now for another entry.
I'd like to know its CC50 at 72 h. The compound in question is NCC1C2CN3C(=O)c4cc(Br)c(Br)n4C4N=C(N)NC43C2C2(N=C(N)NC2O)C1Cl (centres unmarked) [Compound 11, dibromopalau’amine]
4.46 µg/mL

Origin of values: paper PMC2920549
